Data origin: patent CN107840891A

- Tgt: MSLN抗原 (Mesothelin, MSLN-Biotin) (human) (UniProt Q13421)
- Experimental Details: BLI (Octet RED96), MSLN-Biotin on AR2G sensor, TG1 periplasmic scFv as analyte
Endpoint Label: 响应

| Binder | Assay Result |
| --- | --- |
| 8C9 (scFv, V domains shown) VH: QVQLQQPGAELVKPGASMKLSCKASGYTFTSYWMHWVKQRPGQGLEWIGMIHPNSDNTIYYEKFKSKATLTVDKSSSTAYMQLSSLTSEDSAVYYCAIIITPVVPKFDYWGQGTTLTVSS VL: DIVMTQSHQFMSTSVGDRVSVTCMASHDVGTSVAWYQQKPGQSPKLLIYWASTRHTGVPDRFTGSGSGTDFTLTISNVQSEDLADYFCQQYSSYPLTFGAGTKLELK | 0.93 |
